Target: MRGPRX2 (Homo sapiens, UniProt Q96LB1)
Sequence (Q96LB1 1-330): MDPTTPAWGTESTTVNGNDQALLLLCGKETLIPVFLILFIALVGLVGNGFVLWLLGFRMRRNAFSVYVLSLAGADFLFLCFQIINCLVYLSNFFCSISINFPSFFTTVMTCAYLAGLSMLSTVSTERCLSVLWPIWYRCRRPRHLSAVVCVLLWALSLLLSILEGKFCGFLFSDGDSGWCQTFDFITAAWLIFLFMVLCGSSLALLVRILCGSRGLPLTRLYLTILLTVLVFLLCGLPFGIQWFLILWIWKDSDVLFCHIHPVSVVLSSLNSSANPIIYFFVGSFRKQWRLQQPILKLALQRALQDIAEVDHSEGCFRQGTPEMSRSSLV
Assay: β-arrestin recruitment assay (antagonist mode), β-arrestin-CHO cells recombinantly expressing MRGPRX2
Type: cell-based
Design: expressed in transfected cells
Conditions: versus SP (EC80 3 µM); read-out: IC50 versus substance P, β-arrestin assay
test.readout: pIC50
Give bare numbers, as −log10 of the molar value.

Reported pIC50, compound "CCc1c(C(C)C)[nH]c2nc3cc(F)c(F)cc3n2c1=O" : ____
7.52

====

Biological target: MRGPRX2 (Homo sapiens, UniProt Q96LB1)
Sequence (Q96LB1 1-330): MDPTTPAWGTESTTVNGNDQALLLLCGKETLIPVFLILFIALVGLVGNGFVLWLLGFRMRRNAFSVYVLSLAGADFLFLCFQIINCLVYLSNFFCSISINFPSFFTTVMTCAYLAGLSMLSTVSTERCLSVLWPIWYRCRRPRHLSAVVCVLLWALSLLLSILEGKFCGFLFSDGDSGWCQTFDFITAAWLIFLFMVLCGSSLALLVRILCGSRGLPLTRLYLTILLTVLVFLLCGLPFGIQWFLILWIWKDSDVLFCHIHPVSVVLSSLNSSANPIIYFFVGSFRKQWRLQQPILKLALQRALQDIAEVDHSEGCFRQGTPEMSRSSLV
Test: β-arrestin recruitment assay (antagonist mode), β-arrestin-CHO cells recombinantly expressing MRGPRX2
Assay type: cell-based
Design: expressed in transfected cells
Conditions: versus (R)-ZINC-3573 (EC80 2 µM); read-out: Ki versus (R)-ZINC-3573, β-arrestin assay
test.readout: pKi
Numbers only, as −log10 of the molar value.

Find the measured pKi: item "CCc1c(C(C)C)[nH]c2nc3cc(F)c(F)cc3n2c1=O" , target or system MRGPRX2 (Homo sapiens, UniProt Q96LB1).
8.26

====

Target: UniProt Q96LB1
Sequence (Q96LB1 1-330): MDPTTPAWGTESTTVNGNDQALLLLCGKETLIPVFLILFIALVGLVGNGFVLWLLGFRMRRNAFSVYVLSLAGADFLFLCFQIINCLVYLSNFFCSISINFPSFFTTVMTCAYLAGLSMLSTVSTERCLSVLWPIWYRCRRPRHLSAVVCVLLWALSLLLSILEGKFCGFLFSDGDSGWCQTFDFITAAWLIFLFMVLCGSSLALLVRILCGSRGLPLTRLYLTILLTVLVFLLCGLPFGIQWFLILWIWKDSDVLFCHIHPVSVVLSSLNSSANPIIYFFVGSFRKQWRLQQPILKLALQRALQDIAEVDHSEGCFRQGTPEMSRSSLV
Test: β-arrestin recruitment assay (antagonist mode), β-arrestin-CHO cells recombinantly expressing MRGPRX2
Type: cell-based
Design: expressed in transfected cells
Details: versus CST-14 (EC80 1,000 nM, EC50 483 nM); Cheng-Prusoff; read-out: β-Arrestin assay Ki ± SEM
pKi: −log10 of the molar value.
Rule: pKi of 6 or more gives MET; anything lower gives NOT MET.

Say whether Cc1[nH]c2nc3ccccc3n2c(=O)c1C [Compound 3] shows pKi of 6 or more.
NOT MET

Entry to check: CCc1c(C(C)C)[nH]c2nc3cc(C)ccc3n2c1=O [Compound 29]
MET

Another compound to check: CCc1c(C(C)C)[nH]c2nc3cc(Cl)c(Cl)cc3n2c1=O [Compound 25]
MET
